System: Human papillomavirus type 1a protein E7 (residues 44-93)
Assay: HPV1a E7 fragment binders on microarrays, primary screen, biochemical, small-molecule microarray, residues 44-93, 635 nm fluorescence (AID 1108);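 note: E7 fragment applied at 1 µg/mL in TBST for 1 h at 4 C; score combines spot fluorescence with its signal to noise ratio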
Details: small-molecule microarray binding, fluorescence 635 nm; higher = more signal
Endpoint Name: composite z-score

Worked set:
{"Structure Smiles String": "COC(=O)[C@@]1(Cc2ccc(OC)cc2)[C@H]2c3cc(C(=O)N(C)C)n(Cc4ccc(C)c(F)c4F)c3C[C@H]2CN1C(=O)c1ccccc1", "composite z-score": 0.723}
{"Structure Smiles String": "O=C1O[C@@H](c2ccccc2)[C@@H](c2ccccc2)N2[C@@H](c3ccc(O)cc3)[C@]3(C(=O)Nc4ccc(C#CC5(O)CCCCCC5)cc43)[C@@H](C(=O)Nc3nc4ccccc4s3)[C@H]12", "composite z-score": -0.423}
{"Structure Smiles String": "Cc1ccc(S(=O)(=O)N[C@H]2COC(=O)CC=C[C@H](C)COC(=O)N[C@@H](C)C(=O)CC=C[C@@H]2C)cc1", "composite z-score": -0.417}
{"Structure Smiles String": "C=CCN1C(=O)[C@@]2(Cc3ccccc3)N=C(c3ccc(OCCCO)cc3)O[C@H]2c2ccccc21", "composite z-score": 0.974}
{"Structure Smiles String": "C=CCC1=C[C@H]2[C@H]([C@@H]3C=C[C@]2(CC=C)C(=O)[C@]32CO2)[C@@]2(CO2)C1=O", "composite z-score": -0.763}
{"Structure Smiles String": "CCCC=C(CCC)[C@@H](NC(=O)c1ccccc1)c1ccccc1", "composite z-score": 0.0084}

Lab note: next compound to report on.
Measured composite z-score, CCCC=C(CCC)[C@@H](NS(=O)(=O)c1cccc(C(F)(F)F)c1)c1ccc(C(=O)OC)cc1 : 1.19
